# credit: patent US11976072B2

target: human DGKα (Homo sapiens, UniProt P23743); experiment: DGKα Biochemical Activity Assay (ADP-Glo); conditions: recombinant DGKα 1 nM, 100 μM ATP, 18:1 DAG/POPS/octylglucoside micelles, 1 hour at 25° C.; geometric mean; read-out: HTBS DGKa 1X ATP KM IC50;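 further: luminescent detection of ADP produced as DGKα phosphorylates DAG to phosphatidic acid, IC50 from four-parameter nonlinear curve fit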
Sequence (P23743 whole entry): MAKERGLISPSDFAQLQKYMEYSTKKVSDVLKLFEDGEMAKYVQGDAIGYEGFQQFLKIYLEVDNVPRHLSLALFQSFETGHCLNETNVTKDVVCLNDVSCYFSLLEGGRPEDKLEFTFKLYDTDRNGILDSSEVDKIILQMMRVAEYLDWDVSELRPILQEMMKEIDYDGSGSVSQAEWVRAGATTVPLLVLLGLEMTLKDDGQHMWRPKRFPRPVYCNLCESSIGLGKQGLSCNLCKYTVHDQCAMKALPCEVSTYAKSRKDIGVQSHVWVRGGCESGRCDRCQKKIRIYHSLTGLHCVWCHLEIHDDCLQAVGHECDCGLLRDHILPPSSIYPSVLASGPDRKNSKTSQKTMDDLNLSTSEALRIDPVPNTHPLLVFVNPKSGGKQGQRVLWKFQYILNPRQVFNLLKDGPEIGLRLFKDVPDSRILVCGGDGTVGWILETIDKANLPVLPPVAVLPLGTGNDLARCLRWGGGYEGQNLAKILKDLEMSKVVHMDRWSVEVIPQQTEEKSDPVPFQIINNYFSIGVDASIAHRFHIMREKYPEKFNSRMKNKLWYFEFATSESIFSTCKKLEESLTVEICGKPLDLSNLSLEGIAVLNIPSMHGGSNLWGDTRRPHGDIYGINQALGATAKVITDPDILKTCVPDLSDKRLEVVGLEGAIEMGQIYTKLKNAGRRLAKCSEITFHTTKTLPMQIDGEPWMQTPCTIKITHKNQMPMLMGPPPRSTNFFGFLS
measurement.kind: IC50 (nM)

Worked examples, 5 compounds total:
[[record]]
compound = "Cc1nnc2nc(N3CCOCc4c(C#CC5(C(C)(F)F)CC5)cccc43)c3c(F)c(F)ccc3n12"
measurement_kind = "IC50"
unit = "nM"
test_result = 5.18

[[record]]
compound = "Cc1nnc2nc(N3CCCOc4c(C#CC5CC5)cccc43)c3c(F)c(F)ccc3n12"
measurement_kind = "IC50"
unit = "nM"
test_result = 5.19

[[record]]
compound = "Cc1nnc2nc(N3CCCc4c(C#CC(C)(C)NC(=O)OC(C)C(F)(F)F)cccc43)c3c(F)cccc3n12 (stereo not shown)"
measurement_kind = "IC50"
unit = "nM"
test_result = 14.1

[[record]]
compound = "CC1(C#Cc2cccc3c2COCCN3c2nc3nnc(N)n3c3cccc(F)c23)CC1"
measurement_kind = "IC50"
unit = "nM"
test_result = 8.42

[[record]]
compound = "Cc1nnc2nc(N3CCCCc4c(C#CC5(C(F)(F)F)CC5)cccc43)c3c(F)cccc3n12"
measurement_kind = "IC50"
unit = "nM"
test_result = 54.9


[I] Cc1nnc2nc(N3CCCc4c(C#CC(C)(C)C(F)(F)F)cncc43)c3c(F)c(F)ccc3n12
[II] Fc1ccc2c(c(N3CCCc4c(C#CC5CCC5)cncc43)nc3nncn32)c1F
Asked: // which entry reports the smaller IC50, I or II ? Mark your answer with the label of the selected entry.
Given back: II
(II: 7.93 nM, I: 29.3 nM)

[a] Cc1nnc2nc(N3CCCc4c(C#CC(C)(C)C(=O)N5CCOC(C)(C)C5)cccc43)c3c(F)cccc3n12
[b] Cc1nnc2nc(N3CCCc4c(N5CCN(C(=O)C(F)(F)F)CC5)cccc43)c3c(F)cccc3n12
[c] Fc1ccc(Cl)c2c1c(N1CCOCc3c(C#CC4(C(F)F)CC4)cccc31)nc1nncn12
Asked: Order the records, beginning with the lowest IC50 and ending with the highest. Answer format: the labels, in the requested order.
Given back: c, a, b

[P] Cc1nnc2nc(N(CC(F)F)c3cc(F)cc(C#CC(C)(C)C#N)c3)c3cc(F)ccc3n12
[Q] Cc1nnc2nc(N(CC(F)F)c3ccnc(C#CC(C)(C)C(F)F)c3F)c3c(F)cccc3n12
Asked: Thinking about recorded IC50 values, which is higher, P or Q ? Mark your answer with the label of the selected entry.
Given back: P

[P] Cc1nnc2nc(N3CCCc4c(C#CC5(O)CCCC5)cccc43)c3c(F)cccc3n12
[Q] Fc1ccc2c(c(N(CC(F)F)c3ccnc(C#CC4(C(F)(F)F)CC4)c3)nc3nncn32)c1F
[R] Cc1nnc2nc(N(CC(F)F)c3cc(F)cc(C#CC4COC4)c3)c3c(F)cccc3n12
Asked: Order the records, beginning with the lowest IC50 and ending with the highest. Answer format: the labels, in the requested order.
Given back: Q, P, R
(Q: 7.69 nM, P: 13.9 nM, R: 33.9 nM)

[A] CC(C)(C#Cc1cc(F)cc(N(CC(F)F)c2nc3nncn3c3c(Cl)cc(F)cc23)c1)C(F)F
[B] Cc1nnc2nc(N3CCCc4c(C#CC(C)(C)C(=O)NC5(C(F)(F)F)CC5)cccc43)c3c(F)cccc3n12
[C] Cc1nnc2nc(N3CCCc4c(C#CC5CCCCO5)cccc43)c3c(F)cccc3n12 (stereo not shown)
[D] Cc1nnc2nc(N3CCOCc4c(C#CC(C)(C)NC(=O)C5(C(F)(F)F)CC5)cccc43)c3c(F)c(F)ccc3n12
Asked: Order the records, beginning with the lowest IC50 and ending with the highest. Answer format: the labels, in the requested order.
Given back: D, C, A, B

[a] CC(C)(C#Cc1cccc2c1COCCN2c1nc2nnc(N)n2c2cccc(F)c12)C(F)(F)F
[b] Cc1nnc2nc(N3c4cccc(C#CC(C)(C)O)c4CCC3C)c3c(F)cccc3n12 (stereo not shown)
Asked: Thinking about recorded IC50 values, which is higher, a or b ? Mark your answer with the label of the selected entry.
Given back: a

[P] Cc1nnc2nc(N3CCCOc4c(C#CC5(C)CC5)cncc43)c3cc(F)ccc3n12
[Q] Cc1nnc2nc(N3CCCCc4c(C#CC(C)(C)C#N)cccc43)c3c(F)cccc3n12
[R] Cc1nnc2nc(N3c4cccc(C#CC5(C(F)(F)F)CC5)c4CCC3C)c3c(F)cccc3n12 (stereo not shown)
[S] Cc1nnc2nc(N3CCCc4c(C#CC5(C(C)(F)F)CC5)cncc43)c3c(F)c(F)ccc3n12
Asked: Order the records, beginning with the lowest IC50 and ending with the highest. Answer format: the labels, in the requested order.
Given back: Q, P, S, R
(Q: 9.86 nM, P: 17.2 nM, S: 37.3 nM, R: 78.3 nM)
